Test: In vivo fluocinolone acetonide levels in rabbit eyes after intravitreal implant
Settings: vitreous humor, intravitreal implant configuration #29, day 120

- compound: "CC1(C)O[C@@H]2C[C@H]3[C@@H]4C[C@H](F)C5=CC(=O)C=C[C@]5(C)[C@@]4(F)[C@@H](O)C[C@]3(C)[C@]2(C(=O)CO)O1 [Fluocinolone acetonide]"
  concentration at 120 day: "28.1 ng/mL"

Source listed as patent US9327059B2.
